biological target: UniProt:P25090; assay: FPR2 cyclic adenosine monophosphate (cAMP) assay; assay type: cell-based; conditions: CHO cells overexpressing human FPR2; forskolin 5 μM, IBMX 200 μM; inhibition of cAMP production; read-out: hFPR2 cAMP2 EC50
Sequence (P25090 whole entry): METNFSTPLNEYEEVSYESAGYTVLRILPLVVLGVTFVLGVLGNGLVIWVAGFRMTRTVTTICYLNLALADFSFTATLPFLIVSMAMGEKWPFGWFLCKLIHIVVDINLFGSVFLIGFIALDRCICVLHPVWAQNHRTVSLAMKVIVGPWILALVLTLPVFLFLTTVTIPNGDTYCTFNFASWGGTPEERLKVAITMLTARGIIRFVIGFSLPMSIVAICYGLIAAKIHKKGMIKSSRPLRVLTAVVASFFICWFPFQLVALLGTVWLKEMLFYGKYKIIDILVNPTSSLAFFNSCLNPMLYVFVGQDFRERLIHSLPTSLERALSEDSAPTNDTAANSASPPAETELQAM
Assay readout: log10 EC50 (log10 of the value in µM)

O=C(Nc1ccc(C(F)(F)F)nc1)N[C@H]1CCCN(c2ccc(C3(CN4CCOCC4)CCC3)cc2)C1=O
0.08
CS(=O)(=O)NCC1(c2ccc(N3C[C@@H](O)C[C@@H](NC(=O)Nc4ncc(Cl)cc4F)C3=O)cc2)CC1
-1.77
CS(=O)(=O)NCC1(c2ccc(N3CCC[C@@H](NC(=O)Nc4ccc(C(F)(F)F)cc4)C3=O)cc2F)CC1
-3.77
O=C(Nc1ccc(Cl)cn1)N[C@@H]1CCCN(c2ccc(C3(CN4CCOCC4)CC3)cc2)C1=O
-1.77
O=C(Nc1ccc(C(F)(F)F)nc1)N[C@H]1CCCN(c2ccc(C3(CN4CCCC4)CCC3)cc2)C1=O
-0.02
CS(=O)(=O)NCC1(c2ccc(N3CCC[C@@H](NC(=O)Nc4cnc(Cl)cn4)C3=O)cc2)CCC1
-3.15
CS(=O)(=O)NCC1(c2ccc(N3CCC[C@@H](NC(=O)Nc4ccc(C(F)(F)F)cc4)C3=O)cc2)CC1
-3.68

The values you see were collected from patent US11124494B2.
